# ASSAYED SYSTEM: human FPTase (Homo sapiens, UniProt P49354+P49356)
# ASSAY REMARKS: In vitro inhibition of human farnesyl-protein transferase
# STUDY CONDITIONS: [3H]-FPP, 100 nM Ras-CVIM, 30 min, read-out: IC50 against human FPTase
pIC50: −log10 of the molar value. Counter-ions that a name gives are not always drawn.
PROPERTY LABEL: pIC50

// query pIC50 value for entry CC(=O)N(CCNc1cccc(Cl)c1)Cc1cncn1Cc1ccc(C#N)cc1 [Example 1, dihydrochloride]
> 5.00
